- System: HPPD polypeptides
- MEASUREMENT_PROTOCOL: coupled HPPD activity assay: turnover and residual turnover in crude extracts
- Format: biochemical, Pseudomonas fluorescens
- TEST_SETTINGS: 100 μM Cmpd. 1; signal change with inhibitor divided by signal change without inhibitor
Each record here notes measured Residual turnover [%].
ATTRIBUTE_MEASURED: Residual turnover [%] (%)

{"MOLECULE": "39 (protein, mutant HPPD polypeptide) MADLYENPMGLMGFEFIEFASPTPGTLEPIFEIMGFTKVATHRSKNVHLYRQGEINLILNNEPNSIASYFAAEHGPSVCGMAFRVKDSQKAYNRALELGAQPIHIDTGPMELNLPAIKGIGGAPLYLIDRFGEGSSIYDIDFVYLEGVERNPVGAGLKVIDHLTHNVYRGRMVYWANFYEKLFNFREARYFDIKGEYTGLTSKAMSAPDGMIRIPLNEESSKGAGQIEEFLMQFNGEGIQHVAFLTDDLVKTWDALKKIGMRFMTAPGDEYYEMLEGRLPDHGEPVDQLQARGILLDGSSVEGDKRLLLQIFSETLMGPVFFEFIQRKGDDGFGPHSFKVLFESVERDQVRRGVLTAD", "ATTRIBUTE_MEASURED": "Residual turnover [%]", "REPORTED_RESULT": 40}
{"MOLECULE": "33 (protein, mutant HPPD polypeptide) MADLYENPMGLMGFEFIEFASPTPGTLEPIFEIMGFTKVATHRSKNVHLYRQGEINLILNNEPNSIASYFAAEHGPSVCGMAFRVKDSQKAYNRALELGAQPIHIDTGPMELNLPAIKGIGGAPLYLIDRFGEGSSIYDIDFVYLEGVERNPVGAGLKVIDHLTHNVYRGRMVYWANFYEKLFNFREARYFDIKGEYTGLTSKAMSAPDGMIRIPLNEESSKGAGQIEEFLMQFNGEGIQHVAFLTDDLVKTWDALKKIGMRFMTAPADNYYEMLEGRLPDHGEPVDQLQARGILLDGSSVEGDKRLLLQIFSETLMGPVFFEFIQRKGDDGFGPHSFKVLFESVERDQVRRGVLTAD", "ATTRIBUTE_MEASURED": "Residual turnover [%]", "REPORTED_RESULT": 46}
{"MOLECULE": "43 (protein, mutant HPPD polypeptide) MADLYENPMGLMGFEFIEFASPTPGTLEPIFEIMGFTKVATHRSKNVHLYRQGEINLILNNEPNSIASYFAAEHGPSVCGMAFRVKDSQKAYNRALELGAQPIHIDTGPMELNLPAIKGIGGAPLYLIDRFGEGSSIYDIDFVYLEGVERNPVGAGLKVIDHLTHNVYRGRMVYWANFYEKLFNFREARYFDIKGEYTGLTSKAMSAPDGMIRIPLNEESSKGAGQIEEFLMQFNGEGIQHVAFLTDDLVKTWDALKKIGMRFMTAPADEYYEMLEGRLPDHGEPVDQLQARGILLDGSSVEGDKRLLLQIFSETLMGPVFFEFIQRKGDDGFGPHSFKVLFEQVERDQVRRGVLTAD", "ATTRIBUTE_MEASURED": "Residual turnover [%]", "REPORTED_RESULT": 58}
{"MOLECULE": "27 (protein, mutant HPPD polypeptide) MADLYENPMGLMGFEFIEFASPTPGTLEPIFEIMGFTKVATHRSKNVHLYRQGEINLILNNEPNSIASYFAAEHGPSVCGMAFRVKDSQKAYNRALELGAQPIHIDTGPMELNLPAIKGIGGAPLYLIDRFGEGSSIYDIDFVYLEGVERNPVGAGLKVIDHLTHNVYRGRMVYWANFYEKLFNFREARYFDIKGEYTGLTSKAMSAPDGMIRIPLNEESSKGAGQIEEFLMQFNGEGIQHVAFLTDDLVKTWDALKKIGMRFMTAPADNYYEMLEGRLPDHGEPVDQLQARGILLDGSSVEGDKRLLLQIFSETLMGPVFFEFIQRKGDDGFGPHSFKVLFESIERDQVRRGVLTAD", "ATTRIBUTE_MEASURED": "Residual turnover [%]", "REPORTED_RESULT": 38}
